Hi there, I'd appreciate the recorded IC50 for every entry that follows.
- target-or-test-system: IRAK4 (Homo sapiens (Human), UniProt Q9NWZ3)
- Sequence (Q9NWZ3 whole entry, species assumed): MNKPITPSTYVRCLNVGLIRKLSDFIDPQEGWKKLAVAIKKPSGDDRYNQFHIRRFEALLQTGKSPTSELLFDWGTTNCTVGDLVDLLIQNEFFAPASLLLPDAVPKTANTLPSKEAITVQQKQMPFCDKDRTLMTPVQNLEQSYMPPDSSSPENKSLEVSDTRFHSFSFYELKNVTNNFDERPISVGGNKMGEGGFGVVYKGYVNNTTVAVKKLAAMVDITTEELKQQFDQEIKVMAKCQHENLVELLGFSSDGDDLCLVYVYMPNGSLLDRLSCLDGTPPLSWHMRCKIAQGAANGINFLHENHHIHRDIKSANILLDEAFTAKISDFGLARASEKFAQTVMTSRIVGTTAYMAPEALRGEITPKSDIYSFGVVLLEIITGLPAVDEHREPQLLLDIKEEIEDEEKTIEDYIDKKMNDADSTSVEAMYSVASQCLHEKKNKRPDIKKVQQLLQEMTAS
- assay-explanation: IRAK-4 biochemical kinase assay, AlphaScreen format
- test-conditions: 1 nM IRAK4, 1.6 μM peptide, 10 μM ATP, 3.5 h at RT; class symbols

CN(C)CCNC(=O)c1ccc2c(c1)NC(=O)c1csc(n1)-c1ccnc(c1)NCCCCCO2 [Compound 16] yielded IC50 of < 100 nM

Cn1cc2c(n1)C(=O)NCCCCCNc1cc(ccn1)-c1nc(co1)C(=O)N2 [Compound 33] yielded IC50 of < 100 nM

O=C1c2coc(n2)-c2ccnc(c2)OCCCCCCN1Cc1ccccc1 [Compound 51] yielded IC50 of < 10000 nM

Cn1cc2c(n1)C(=O)NCCC/C=C/CCCNc1cc(ccn1)-c1nc(co1)C(=O)N2 [Example 140] yielded IC50 of < 100 nM

CN(C)C(=O)N1CCCc2cc(ccn2)-c2nc(cs2)C(=O)Nc2cn(C3CCOCC3)nc2C(=O)NCC1 [Example 187] yielded IC50 of < 1000 nM

O=C1Nc2cn(C3CCOCC3)nc2C(=O)NCCOCCOc2cc(ccn2)-c2nc1cs2 [Compound 44] yielded IC50 of < 100 nM

Cn1cc2c(n1)C(=O)NCCCCCc1cc(ccn1)-c1nc(co1)C(=O)N2 [Compound 39] yielded IC50 of < 100 nM

O=C1Nc2cc(C(=O)N3CCOCC3)ccc2OCCCCCNc2cc(ccn2)-c2nc1cs2 [Compound 22] yielded IC50 of < 100 nM

CN(C)CCN1CCCCCCOc2cc(ccn2)-c2nc(co2)C1=O [Compound 54] yielded IC50 of < 1000 nM

CN1CCN(CCn2cc3c(n2)C(=O)NCCOCCOc2cc(ccn2)-c2nc(cs2)C(=O)N3)CC1 [Example 113] yielded IC50 of < 100 nM

Cn1cc2c(n1)C(=O)NCCOCCCOc1cc(ccn1)-c1nc(cs1)C(=O)N2 [Example 122] yielded IC50 of < 100 nM

O=C1Nc2cn(CCN3CCOCC3)nc2C(=O)NCCOCCNc2cc(ccn2)-c2nc1cs2 [Example 118] yielded IC50 of < 100 nM

Cn1cc2c(n1)C(=O)NCCOCCOc1cc(ccn1)-c1nc(cs1)C(=O)N2 [Compound 43] yielded IC50 of < 100 nM

Cn1cc2c(n1)C(=O)NCCOCCOc1cc(ccn1)-n1cc(cn1)C(=O)N2 [Example 202] yielded IC50 of < 10000 nM

CN1CCC(CCn2cc3c(n2)C(=O)NCCOCCOc2cc(ccn2)-c2nc(cs2)C(=O)N3)CC1 [Example 153] yielded IC50 of < 100 nM

O=C1Nc2cn(CCN3CCNCC3)nc2C(=O)NCCOCCOc2cc(ccn2)-c2nc1cs2 [Example 115] yielded IC50 of < 100 nM

CN1CCOCCNC(=O)c2nn(C)cc2NC(=O)c2csc(n2)-c2ccnc1c2 [Example 222] yielded IC50 of < 100 nM

Cn1cc2c(n1)C(=O)NCCOCCOc1cc(ccn1)-c1nc(co1)C(=O)N2 [Compound 35] yielded IC50 of < 100 nM

CN1CCC(CCn2ncc3c2C(=O)NCCOCCOc2cc(ccn2)-c2nc(cs2)C(=O)N3)CC1 [Example 156] yielded IC50 of < 10000 nM

O=C1CCNC(=O)c2csc(n2)-c2ccnc(c2)OCCOCCN1 [Example 126] yielded IC50 of < 1000 nM

CC1CCCC(C)Oc2ccccc2NC(=O)c2coc(n2)-c2ccnc(c2)N1 (centres unmarked) [Example 71] yielded IC50 of < 100 nM

O=C1Nc2cn(C3CCOCC3)nc2C(=O)NCCN(C(=O)C2CCOCC2)CCCc2cc(ccn2)-c2nc1cs2 [Example 190] yielded IC50 of < 100 nM

O=C1Nc2ccccc2C(=O)NCCOCCOc2cc(ccn2)-c2nc1cs2 [Example 127] yielded IC50 of < 100 nM

O=C1Nc2ccccc2OCC/C=C/COc2cc(ccn2)-c2nc1co2 [Example 1] yielded IC50 of < 100 nM

O=C1Nc2ccccc2OCCCCCCn2cc(cn2)-c2nc1cs2 [Example 72] yielded IC50 of < 100 nM

O=C1Nc2cn(C3CCOCC3)nc2C(=O)NCCCOCCOc2cc(ccn2)-c2nc1co2 [Example 125] yielded IC50 of < 100 nM
